Exercise: for every item that follows, state its recorded IC50.
# assay target: LRRK2 (G2019S) (Homo sapiens, UniProt Q5S007, G2019S)
# Construct: Recombinant GST-LRRK2 (delta970), purified from baculovirus infected insect cells (SF9); GST (N)
# Sequence (Q5S007 970-2527 G2019S limits assumed): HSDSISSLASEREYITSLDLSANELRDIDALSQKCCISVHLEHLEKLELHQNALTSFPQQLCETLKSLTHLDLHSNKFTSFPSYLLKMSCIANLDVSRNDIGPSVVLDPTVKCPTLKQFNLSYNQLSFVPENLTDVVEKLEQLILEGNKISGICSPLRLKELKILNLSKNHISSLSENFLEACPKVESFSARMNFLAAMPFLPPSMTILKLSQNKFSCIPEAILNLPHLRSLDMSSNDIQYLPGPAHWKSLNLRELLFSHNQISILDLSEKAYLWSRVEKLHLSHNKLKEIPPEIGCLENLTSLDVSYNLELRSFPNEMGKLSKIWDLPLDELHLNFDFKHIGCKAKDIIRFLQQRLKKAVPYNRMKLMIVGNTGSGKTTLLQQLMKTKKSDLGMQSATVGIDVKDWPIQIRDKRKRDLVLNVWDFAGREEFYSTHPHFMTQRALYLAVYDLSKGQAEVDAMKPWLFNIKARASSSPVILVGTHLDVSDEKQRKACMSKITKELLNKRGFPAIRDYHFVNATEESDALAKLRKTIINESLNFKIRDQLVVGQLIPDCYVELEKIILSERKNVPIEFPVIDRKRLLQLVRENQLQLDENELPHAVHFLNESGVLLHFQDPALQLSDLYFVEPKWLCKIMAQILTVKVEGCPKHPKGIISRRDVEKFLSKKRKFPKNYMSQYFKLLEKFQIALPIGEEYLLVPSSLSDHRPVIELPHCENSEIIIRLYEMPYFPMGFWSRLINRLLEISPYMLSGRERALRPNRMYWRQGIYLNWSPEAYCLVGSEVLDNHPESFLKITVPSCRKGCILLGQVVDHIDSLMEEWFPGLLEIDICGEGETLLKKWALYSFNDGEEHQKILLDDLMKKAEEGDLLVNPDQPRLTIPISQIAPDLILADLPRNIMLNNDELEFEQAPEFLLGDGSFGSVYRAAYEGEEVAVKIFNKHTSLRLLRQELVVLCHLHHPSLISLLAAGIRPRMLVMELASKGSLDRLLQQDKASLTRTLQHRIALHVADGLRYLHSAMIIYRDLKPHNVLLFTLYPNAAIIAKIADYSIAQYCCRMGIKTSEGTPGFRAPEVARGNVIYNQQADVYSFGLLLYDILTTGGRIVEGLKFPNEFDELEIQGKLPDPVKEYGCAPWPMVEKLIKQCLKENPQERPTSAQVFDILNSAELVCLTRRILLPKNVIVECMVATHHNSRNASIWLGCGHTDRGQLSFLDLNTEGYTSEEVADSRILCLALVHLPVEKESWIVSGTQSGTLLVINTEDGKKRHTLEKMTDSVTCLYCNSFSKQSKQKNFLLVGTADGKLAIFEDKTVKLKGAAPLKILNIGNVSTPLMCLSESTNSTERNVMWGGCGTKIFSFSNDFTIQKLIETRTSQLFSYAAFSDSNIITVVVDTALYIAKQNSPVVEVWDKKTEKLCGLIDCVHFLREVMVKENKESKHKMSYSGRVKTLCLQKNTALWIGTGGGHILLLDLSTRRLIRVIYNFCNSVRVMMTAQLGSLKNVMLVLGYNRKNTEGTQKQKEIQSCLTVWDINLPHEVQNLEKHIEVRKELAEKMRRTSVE
# protocol text: LRRK2 inhibition, radiometric kinase assay with recombinant GST-LRRK2 (delta970) and peptide substrate
# settings: GST-LRRK2 (delta970) G2019S 30 nM, ATP ~52 μM (Km), 30 min at 30° C.

The compound listed as CCC(Sc1ccc2nnc(-c3ccccc3)n2n1)C(=O)N1CCCCC1 (stereo not drawn) has a reported IC50 of 100 to 1000 nM

Sample CCC(Sc1ccc2nnc(-c3cccc(F)c3)n2n1)C(N)=O (stereo not drawn) ; IC50 observed: 100 to 1000 nM

Lab note: measured IC50 of CCC(Sc1ccc2nnc(-c3ccc(F)c(F)c3)n2n1)C(=O)N1CCCCC1 (stereo not drawn) was 100 to 1000 nM

Looking up CC(Sc1ccc2nnc(-c3nccs3)n2n1)C(=O)N1CCC1 (stereo not drawn) , I see its IC50 listed as 100 to 1000 nM

# IC50 (compound: CCC(Sc1ccc2nnc(-c3cccc(F)c3)n2n1)C(=O)N1CCCCC1 (stereo not drawn) ) is 100 to 1000 nM

For reference, reported IC50 for CCC(Sc1ccc2nnc(-c3cccs3)n2n1)C(=O)N1CCCC(C)C1 (stereo not drawn) stands at 100 to 1000 nM

Sure, the documented IC50 for `NC(=O)CSc1ccc2nnc(-c3cc4ccccc4o3)n2n1` is ≥ 5000 nM

For CCC(Sc1ccc2nnc(-c3ccccc3F)n2n1)C(=O)O (stereo not drawn) the compound record lists IC50 as 100 to 1000 nM

Form: compound = CCC(Sc1ccc2nnc(-c3ccc(Cl)s3)n2n1)C(=O)O (stereo not drawn) ; IC50 = ≥ 5000 nM

The measurements presented in this section are drawn from patent US9187484B2.
